molecular target: Signal transducer and activator of transcription 3 (Homo sapiens); test: ATG_STAT3_CIS: Attagene CIS-FACTORIAL HepG2 Assay for human Signal Transducer and Activator of Transcription 3 (STAT3) (AID 2282963); details: HepG2, Attagene cis-factorial STAT3 reporter transcription; actives raise or lower the signal
Calls of active or inactive are those of the source. Rule for the calls: active = hit-call score of the fitted dose curve at least 0.9, where 1 is the maximum; inactive = score below 0.9.
Labels: active, inactive

- ENTRY SMILES: "Cc1ccccc1Cl"
  CLASS LABEL: "inactive"
- ENTRY SMILES: "CCCCCCCC=O"
  CLASS LABEL: "active"
- ENTRY SMILES: "CCCCCC(=O)O"
  CLASS LABEL: "inactive"
- ENTRY SMILES: "Clc1cc(Cl)c(Cl)cc1Cl"
  CLASS LABEL: "inactive"
- ENTRY SMILES: "CC1(C)NC(=O)NC1=O"
  CLASS LABEL: "inactive"
- ENTRY SMILES: "c1cc(-c2ccncc2)ccn1"
  CLASS LABEL: "inactive"
- ENTRY SMILES: "C=CCOC(=O)c1ccccc1C(=O)OCC=C"
  CLASS LABEL: "inactive"
- ENTRY SMILES: "Cc1cccc(C)c1O"
  CLASS LABEL: "inactive"
- ENTRY SMILES: "COC(=O)c1ccc(O)cc1"
  CLASS LABEL: "inactive"
- ENTRY SMILES: "NCCO"
  CLASS LABEL: "inactive"
- ENTRY SMILES: "Oc1ccc2ccccc2c1N=Nc1ccccc1"
  CLASS LABEL: "inactive"
- ENTRY SMILES: "COc1ccc2c(c1)c(CC(=O)O)c(C)n2C(=O)c1ccc(Cl)cc1"
  CLASS LABEL: "inactive"
- ENTRY SMILES: "CNC(=O)[C@H]1O[C@@H](n2cnc3c(NCc4cc(Cl)ccc4OCc4cc(C)no4)ncnc32)[C@H](O)[C@@H]1N"
  CLASS LABEL: "inactive"
- ENTRY SMILES: "FC(F)(F)C(F)(F)C(F)(F)C(F)(F)C(F)(F)C(F)(F)CCI"
  CLASS LABEL: "inactive"
- ENTRY SMILES: "Nc1ccccc1N"
  CLASS LABEL: "inactive"
- ENTRY SMILES: "Cc1cc(=O)[nH]c(=S)[nH]1"
  CLASS LABEL: "inactive"
- ENTRY SMILES: "CC(=O)Oc1ccccc1C(=O)O"
  CLASS LABEL: "inactive"
- ENTRY SMILES: "CC1=C(/C=C/C(C)=C/C=C/C(C)=C/CO)C(C)(C)CCC1"
  CLASS LABEL: "inactive"
- ENTRY SMILES: "CN[C@H]1CC[C@@H](c2ccc(Cl)c(Cl)c2)c2ccc(S(N)(=O)=O)cc21"
  CLASS LABEL: "inactive"
- ENTRY SMILES: "CCNc1cccc(C)c1"
  CLASS LABEL: "inactive"
- ENTRY SMILES: "Cc1oc(-c2ccccc2)nc1CCOc1cccc2c1ccn2CCC(=O)O"
  CLASS LABEL: "inactive"
- ENTRY SMILES: "CN1CCCC1=O"
  CLASS LABEL: "inactive"
- ENTRY SMILES: "Nc1ccc(S(=O)(=O)c2ccc(N)cc2)cc1"
  CLASS LABEL: "inactive"
- ENTRY SMILES: "CC(C)c1ccc(C(=O)N=C(N)N)cc1S(C)(=O)=O"
  CLASS LABEL: "inactive"
- ENTRY SMILES: "O=C(N[C@@H](Cc1ccccc1)[C@@H](O)C(=O)N1C[C@@H](O)[C@@H](O)C1)c1cc2cc(Cl)ccc2[nH]1"
  CLASS LABEL: "inactive"

###

read-out: Intercellular Adhesion Molecule 1 (ICAM1), ICAM1 (gene 3383); experiment: LTEA_HepaRG_ICAM1: Life Technologies and Expression Analysis (LTEA) Assay for Intercellular Adhesion Molecule 1 (ICAM1) using HepaRG (AID 2283507); details: mRNA level, 48 h; actives raise or lower the signal
Calls of active or inactive are those of the source. How the source made its calls: active means hit-call score of the fitted dose curve at least 0.9, where 1 is the maximum; inactive means score below 0.9.
Classes used: active, inactive

- COMPOUND: "COCCOCCOC"
  CLASS LABEL: "active"
- COMPOUND: "O=C(O)Cc1ccccc1Nc1c(Cl)cccc1Cl"
  CLASS LABEL: "inactive"
- COMPOUND: "C[Si]1(C)O[Si](C)(C)O[Si](C)(C)O[Si](C)(C)O1"
  CLASS LABEL: "inactive"
- COMPOUND: "Cc1ccc(C)c(C)c1"
  CLASS LABEL: "inactive"
- COMPOUND: "c1cc(-c2ccncc2)ccn1"
  CLASS LABEL: "inactive"
- COMPOUND: "NS(=O)(=O)c1cc2c(cc1Cl)NCNS2(=O)=O"
  CLASS LABEL: "inactive"
- COMPOUND: "COCCOC[C@H](CC1(C(=O)NC2CCC(C(=O)O)CC2)CCCC1)C(=O)Oc1ccc2c(c1)CCC2 (some centres undefined)"
  CLASS LABEL: "inactive"
- COMPOUND: "Cc1ccccc1Cl"
  CLASS LABEL: "inactive"
- COMPOUND: "Nc1ccc2c(c1)C(=O)c1ccccc1C2=O"
  CLASS LABEL: "inactive"

###

read-out: Macrophage colony-stimulating factor (MCSF), CSF1 (gene 1435); experiment: BSK_CASM3C_MCSF: BioMAP Diversity Plus: CASM3C Assay for Macrophage colony-stimulating factor (MCSF) Biomarker Activity (AID 2283044); settings: primary human coronary artery smooth muscle cells; actives raise or lower the signal;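 note: M-CSF protein amount quantified by ELISA after 24 h exposure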
Activity calls are given as the source filed them. How the source made its calls: active means hit-call score of the fitted dose curve at least 0.9, where 1 is the maximum; inactive means score below 0.9.

- COMPOUND: "O=C(O)Cc1ccccc1Nc1c(Cl)cccc1Cl"
  outcome: "inactive"
- COMPOUND: "COCCOC[C@H](CC1(C(=O)NC2CCC(C(=O)O)CC2)CCCC1)C(=O)Oc1ccc2c(c1)CCC2 (stereo partly drawn)"
  outcome: "inactive"
- COMPOUND: "OC[C@@H](O)[C@@H](O)[C@H](O)[C@H](O)CO"
  outcome: "inactive"
- COMPOUND: "CCOc1ccc2c(c1)C(C)=CC(C)(C)N2"
  outcome: "inactive"
- COMPOUND: "CCCCCCCCCCCCCCCC"
  outcome: "inactive"
- COMPOUND: "Cc1cccc([N+](=O)[O-])c1C"
  outcome: "inactive"
- COMPOUND: "O=[N+]([O-])C(CO)(CO)CO"
  outcome: "inactive"
- COMPOUND: "CC1(C)NC(=O)NC1=O"
  outcome: "inactive"

###

assay: ATG_ERE_CIS: Attagene CIS-FACTORIAL HepG2 Assay for Estrogen Response Element (ERE) (AID 2282940); details: HepG2 ERE cis-reporter, Attagene RNA transcript; actives raise or lower the signal
Activity calls are given as the source filed them. Rule for the calls: active = hit-call score of the fitted dose curve at least 0.9, where 1 is the maximum; inactive = score below 0.9.
Classes used: true (1) for active, false (0) for inactive

- ENTRY SMILES: "CC(=O)OC/C=C(\\C)CCC=C(C)C"
  CLASS LABEL: "false (0)"
- ENTRY SMILES: "C[Si]1(C)O[Si](C)(C)O[Si](C)(C)O[Si](C)(C)O1"
  CLASS LABEL: "true (1)"
- ENTRY SMILES: "COc1ccc(C)cc1N"
  CLASS LABEL: "false (0)"

###

Read-out: Cytochrome P450 2C19 (Homo sapiens)
Experiment: LTEA_HepaRG_CYP2C19: Life Technologies and Expression Analysis (LTEA) Assay for CYP2C19 using HepaRG (AID 2283482)
Conditions: mRNA level, 48 h; actives raise or lower the signal
Method: LTEA_HepaRG is a cell based, multiplexed-readout assay that uses HepaRG, a human liver cell line, with measurements taken at 48 hours after chemical dosing on a 96-well plate.LTEA_HepaRG_CYP2C19 is one of 102 assay component(s) measured in the LTEA HepaRG cell culture assay. It is a marker of NR mediated metabolism.Data from the assay component LTEA_HepaRG_CYP2C19 was analyzed into 1 endpoint. […]
The source made the active and inactive calls. Rule for the calls: active = hit-call score of the fitted dose curve at least 0.9, where 1 is the maximum; inactive = score below 0.9.
Classes used: 1 (active), -1 (inactive)

- MOLECULE: "COCCOCCOC"
  CLASS LABEL: -1
- MOLECULE: "C=CCc1ccc(O)c(OC)c1"
  CLASS LABEL: -1
- MOLECULE: "NCCO"
  CLASS LABEL: -1
- MOLECULE: "FC(F)(F)C(F)(F)C(F)(F)C(F)(F)C(F)(F)C(F)(F)CCI"
  CLASS LABEL: -1
- MOLECULE: "Cc1nc(-c2ccc3c(c2)CCN(CCC2CCC(NC(=O)/C=C/c4ccc(F)cc4)CC2)CC3)no1 (configuration not stated)"
  CLASS LABEL: -1
- MOLECULE: "CN1CCCC1=O"
  CLASS LABEL: -1
- MOLECULE: "OC[C@@H](O)[C@@H](O)[C@H](O)[C@H](O)CO"
  CLASS LABEL: -1
- MOLECULE: "CCCCc1ccc2c(n1)[C@@H](c1ccc(OC)cc1C[C@H](C)C(=O)O)[C@H](C(=O)O)[C@H]2c1ccc2c(c1)OCO2"
  CLASS LABEL: -1
- MOLECULE: "CCCc1cc(=O)[nH]c(=S)[nH]1"
  CLASS LABEL: -1
- MOLECULE: "CN1CCN(Cc2cc(-c3ccc4[nH]c(=O)oc4c3)co2)[C@@H](c2ccc(F)cc2)C1"
  CLASS LABEL: -1
- MOLECULE: "CCCCCC(=O)O"
  CLASS LABEL: -1
- MOLECULE: "Oc1ccc2ccccc2c1N=Nc1ccccc1"
  CLASS LABEL: 1
- MOLECULE: "Nc1ccccc1N"
  CLASS LABEL: 1
- MOLECULE: "Cc1cccc([N+](=O)[O-])c1C"
  CLASS LABEL: -1
- MOLECULE: "Cc1ccccc1Cl"
  CLASS LABEL: -1
- MOLECULE: "CC(=O)Oc1ccccc1C(=O)O"
  CLASS LABEL: -1
- MOLECULE: "NS(=O)(=O)c1cc2c(cc1Cl)NCNS2(=O)=O"
  CLASS LABEL: -1

Data provenance: PubChem BioAssay (EPA / NIEHS)
